Where do the numbers come from? From the supplement of paper PMC10307832.

Tested on: NCI-H2405
Assay: relative viability (nuclei count vs DMSO), 5 days (fraction); higher = more cells survive
Settings: first compound 0.1581 µM
Provide the recorded relative viability for the entries that follow.
// no unit, no text: just the number

In: Endpoint output: relative viability of CC1(C)CCC(c2ccc(Cl)cc2)=C(CN2CCN(c3ccc(C(=O)NS(=O)(=O)c4ccc(N[C@H](CCN5CCOCC5)CSc5ccccc5)c(S(=O)(=O)C(F)(F)F)c4)cc3)CC2)C1 [Navitoclax] + Cc1nc(NC(=O)N2CCC[C@H]2C(N)=O)sc1-c1ccnc(C(C)(C)C(F)(F)F)c1 [Alpelisib] (partner 2 µM) . Value?
Out: 0.83

In: Item under review: CC1(C)CCC(c2ccc(Cl)cc2)=C(CN2CCN(c3ccc(C(=O)NS(=O)(=O)c4ccc(N[C@H](CCN5CCOCC5)CSc5ccccc5)c(S(=O)(=O)C(F)(F)F)c4)cc3)CC2)C1 [Navitoclax] + CC(=O)c1c(C)c2cnc(Nc3ccc(N4CCNCC4)cn3)nc2n(C2CCCC2)c1=O [Palbociclib] (partner 0.5 µM) . Reported relative viability?
Out: 0.511

----------
Test system: NCI-H2126
Test: relative viability (nuclei count vs DMSO), 5 days (fraction); higher = more cells survive
Conditions: first compound 0.04 µM
Field: relative viability. Provide a value for each of the compounds that follow.
No unit in the answer, please; the number alone is enough.

In: Quick check: relative viability of O=C(O)c1ccc(-c2c[nH]c3ncc(-c4ccccc4)cc23)cc1C1CCCC1 + COc1cc2c(Oc3ccc(NC(=O)C4(C(=O)Nc5ccc(F)cc5)CC4)cc3F)ccnc2cc1OCCCN1CCOCC1 [Foretinib] (partner 0.25 µM) ?
Out: 1.25

In: Returns the measured relative viability for the input compound. Input: O=C(O)c1ccc(-c2c[nH]c3ncc(-c4ccccc4)cc23)cc1C1CCCC1 + C[C@]1(O)C[C@@H](c2nc(-c3ccc4ccc(-c5ccccc5)nc4c3)c3c(N)nccn32)C1 [Linsitinib] (partner 1 µM)
Out: 0.723

In: Entry under review: O=C(O)c1ccc(-c2c[nH]c3ncc(-c4ccccc4)cc23)cc1C1CCCC1 + Cc1nc(NC(=O)N2CCC[C@H]2C(N)=O)sc1-c1ccnc(C(C)(C)C(F)(F)F)c1 [Alpelisib] (partner 2 µM) . Reported relative viability?
Out: 0.787

In: Give its relative viability value. Item: O=C(O)c1ccc(-c2c[nH]c3ncc(-c4ccccc4)cc23)cc1C1CCCC1 + CCNC(=O)c1noc(-c2cc(C(C)C)c(O)cc2O)c1-c1ccc(CN2CCOCC2)cc1 [Luminespib] (partner 0.01 µM)
Out: 0.937

In: # query: relative viability of entry O=C(O)c1ccc(-c2c[nH]c3ncc(-c4ccccc4)cc23)cc1C1CCCC1 + COc1cccc2cc(-c3nc([C@H]4CC[C@H](C(=O)O)CC4)n4ncnc(N)c34)[nH]c12 [OSI-027] (partner 0.5 µM)
Out: 0.749

----------
Test system: NCI-H838
Assay: relative viability (nuclei count vs DMSO), 5 days (fraction); higher = more cells survive
Settings: first compound 0.5 µM
For each record, write down the corresponding relative viability.
I'd appreciate a reply containing only the number, no unit.

In: Dear colleague, I am looking for the recorded relative viability of the following compound: CC1(C)CCC(c2ccc(Cl)cc2)=C(CN2CCN(c3ccc(C(=O)NS(=O)(=O)c4ccc(N[C@H](CCN5CCOCC5)CSc5ccccc5)c(S(=O)(=O)C(F)(F)F)c4)cc3)CC2)C1 [Navitoclax] + CC(=O)c1c(C)c2cnc(Nc3ccc(N4CCNCC4)cn3)nc2n(C2CCCC2)c1=O [Palbociclib] (partner 0.5 µM)
Out: 0.224

In: What measured relative viability goes with CC1(C)CCC(c2ccc(Cl)cc2)=C(CN2CCN(c3ccc(C(=O)NS(=O)(=O)c4ccc(N[C@H](CCN5CCOCC5)CSc5ccccc5)c(S(=O)(=O)C(F)(F)F)c4)cc3)CC2)C1 [Navitoclax] + CS(=O)(=O)N1CCN(Cc2cc3nc(-c4cccc5[nH]ncc45)nc(N4CCOCC4)c3s2)CC1 [Pictilisib] (partner 1 µM) ?
Out: 0.486

In: Which relative viability reading was recorded for the compound CC1(C)CCC(c2ccc(Cl)cc2)=C(CN2CCN(c3ccc(C(=O)NS(=O)(=O)c4ccc(N[C@H](CCN5CCOCC5)CSc5ccccc5)c(S(=O)(=O)C(F)(F)F)c4)cc3)CC2)C1 [Navitoclax] + O=C(c1cc(Cc2n[nH]c(=O)c3ccccc23)ccc1F)N1CCN(C(=O)C2CC2)CC1 [Olaparib] (partner 8 µM) ?
Out: 0.768

In: Recorded relative viability for CC1(C)CCC(c2ccc(Cl)cc2)=C(CN2CCN(c3ccc(C(=O)NS(=O)(=O)c4ccc(N[C@H](CCN5CCOCC5)CSc5ccccc5)c(S(=O)(=O)C(F)(F)F)c4)cc3)CC2)C1 [Navitoclax] + COc1cc2c(Oc3ccc(NC(=O)C4(C(=O)Nc5ccc(F)cc5)CC4)cc3F)ccnc2cc1OCCCN1CCOCC1 [Foretinib] (partner 0.25 µM) , please?
Out: 1.03
